From: patent US9260408B2

- tgt: human CYP11B2 (Homo sapiens, UniProt P19099)
- Sequence (P19099 25-503): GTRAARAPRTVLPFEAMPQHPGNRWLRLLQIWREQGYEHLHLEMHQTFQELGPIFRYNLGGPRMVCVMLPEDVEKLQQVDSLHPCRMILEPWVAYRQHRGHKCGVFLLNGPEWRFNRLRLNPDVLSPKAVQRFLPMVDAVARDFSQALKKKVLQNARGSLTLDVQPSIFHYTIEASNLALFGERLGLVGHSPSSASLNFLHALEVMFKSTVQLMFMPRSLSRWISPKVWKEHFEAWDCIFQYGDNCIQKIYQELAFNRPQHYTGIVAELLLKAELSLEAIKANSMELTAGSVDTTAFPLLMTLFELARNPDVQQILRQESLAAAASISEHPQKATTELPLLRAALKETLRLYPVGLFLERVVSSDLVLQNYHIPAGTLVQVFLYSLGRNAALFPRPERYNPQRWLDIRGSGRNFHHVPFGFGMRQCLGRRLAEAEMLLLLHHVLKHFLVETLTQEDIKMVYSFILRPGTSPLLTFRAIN
- protocol.summary: G-402 cellular enzyme assay, human CYP11B2 (aldosterone release, HTRF)
- condition.summary: G-402 cells expressing human CYP11B2; 1 μM Deoxycorticosterone
Counter-ions that a name gives are not always drawn.
quantity.kind: EC50 (nM)
The reply should contain only the number, in nM.

Would you please look over these solved cases?
molecule | units.text | EC50
CCS(=O)(=O)N(C)C(C)c1cncc(-c2ccc3c(c2)CCC(=O)N3C)c1 (racemic) | nM | 11
Cc1noc(C)c1C(=O)NCc1cncc(-c2ccc3c(c2)CCC(=O)N3C)c1C | nM | 36
CC(NC(=O)c1ncccc1Cl)c1cncc(-c2ccc3c(c2)CCC(=O)N3C)c1Cl (single isomer, unassigned) | nM | 1
CCC(=O)N1CC(Oc2cncc(-c3ccc4c(c3)CCC(=O)N4C)c2)C1 | nM | 30
CN1C(=O)CCc2cc(-c3cncc(OCCN)c3)ccc21 [Example 42, hydrochloride] | nM | 28

[in] Consider the molecule shown here: CN1C(=O)CCc2cc(-c3cncc(N4CC5(CN(C(=O)OC(C)(C)C)C5)C4)n3)ccc21 What is its recorded EC50?
[out] 121

[in] Consider the molecule shown here: CCC(=O)NCc1cncc(-c2cc3c(cc2F)N(C)C(=O)CC3)c1 What is its recorded EC50?
[out] 51

[in] Consider the molecule shown here: CN1C(=O)CCc2cc(-c3cccnc3)ncc21 What is its recorded EC50?
[out] 325

[in] Consider the molecule shown here: CN1C(=O)CCc2cc(-c3cncc(CNS(=O)(=O)C4CC4)c3)ccc21 What is its recorded EC50?
[out] 47

[in] Consider the molecule shown here: Cc1c(CN)cncc1-c1cc2c(cc1F)N(C)C(=O)CC2 [Example 226, hydrochloride] What is its recorded EC50?
[out] 11

[in] Consider the molecule shown here: CN1C(=O)CCc2cc(-c3cncc(CNC(=O)c4ncccc4F)c3)ccc21 What is its recorded EC50?
[out] 6

[in] Consider the molecule shown here: COc1ccc(S(=O)(=O)NCc2cncc(-c3ccc4c(c3)CCC(=O)N4C)c2)cn1 What is its recorded EC50?
[out] 375

[in] Consider the molecule shown here: CN1C(=O)CCc2cc(-c3cncc(O[C@@H]4CCN(C(=O)OC(C)(C)C)C4)c3)ccc21 What is its recorded EC50?
[out] 8

[in] Consider the molecule shown here: CN1C(=O)CCc2cc(-c3cncc(CNC(=O)c4cnoc4C(F)(F)F)c3)ccc21 What is its recorded EC50?
[out] 175

[in] Consider the molecule shown here: CCC(=O)N1CC[C@H](Oc2cncc(-c3ccc4c(c3)CCC(=O)N4C)c2)C1 What is its recorded EC50?
[out] 11

[in] Consider the molecule shown here: CN1C(=O)CCc2cc(-c3cncc(OC[C@@H]4CCN4)c3)ccc21 What is its recorded EC50?
[out] 731

[in] Consider the molecule shown here: CN1C(=O)CCc2cc(-c3cncc(NCCO)n3)ccc21 What is its recorded EC50?
[out] 7

[in] Consider the molecule shown here: Cc1nc(C(=O)NCc2cncc(-c3ccc4c(c3)CCC(=O)N4C)c2)co1 What is its recorded EC50?
[out] 78
